testTarget: UrdPase
Construct: The supernatant fluids (cytosol) were collected and used as an enzyme source
assayName: Inhibition of uridine phosphorylase in mouse liver cytosol (apparent Ki, Dixon plots)
statedConditions: enzyme from mouse liver cytosol; uridine 1 mM; ± S.D.
Mark rule met only for Ki values smaller than 20 µM; exact matches and larger values are rule not met.

compound	category
CCOCn1cc([Se]c2ccccc2)c(=O)[nH]c1=O	rule not met
O=c1[nH]c(=O)n([C@@H]2O[C@H](CO)[C@@H](O)[C@H]2O)cc1[Se]c1ccccc1	rule met
O=c1[nH]c(=O)n(COCCO)cc1[Se]c1ccccc1	rule met
O=c1cc([Se]c2ccccc2)n(COCCO)c(=O)[nH]1	rule met
O=c1[nH]cc(Sc2ccccc2)c(=O)[nH]1	rule not met
O=c1[nH]c(=O)n(COCCO)cc1Cc1ccccc1 [5-Benzylacyclouridine (BAU), 5-Benzylacyclouridine, reference compound]	rule met
